Conditions: in acetone, 278.15 K
resultType: solubility (mole fraction)

# testSmiles, number
rows = [
    ("CC(C)Oc1ccc2c(=O)c(-c3ccccc3)coc2c1", 0.00852),
]

* * *

Conditions: in DMF, 278.15 K

# testSmiles, solubility (mole fraction)
data = [
    ("CC(C)Oc1ccc2c(=O)c(-c3ccccc3)coc2c1", 0.0245),
]

* * *

Settings: in methyl acetate, 318.15 K

# testSmiles, solubility (mole fraction)
data = [
    ("CC(C)Oc1ccc2c(=O)c(-c3ccccc3)coc2c1", 0.0479),
]

* * *

Details: in ethanol, 288.15 K
resultType: solubility (mole fraction)

# testSmiles, resultType, result
data = [
    ("CC(C)Oc1ccc2c(=O)c(-c3ccccc3)coc2c1", "solubility (mole fraction)", 0.00187),
]
